Each recorded value in this set is attributed to PubChem BioAssay AID248.

- Tested on: L1210 leukemia ip in BDF1 mice, survival T/C
- assay: NCI In Vivo Anticancer Drug Screen. Data for tumor model L1210 Leukemia (intraperitoneal) in B6D2F1 (BDF1) mice
- test_settings: endpoint: mean survival time; dose: 100.0 mg/kg/injection; schedule: Q04DX003 (ip); vehicle: saline with Tween-80; higher = longer survival
Inconclusive results and toxic doses are left out.
The entries below are paired with their reported T/C.
metric_name: T/C

• ON=C1CCC(CC2CCCCC2)CC1 (stereo unspecified) = 95 % of control
• COc1ccc(NC(=O)Oc2ccccc2-c2ccccc2)cc1 = 91 % of control
• CCOC(=O)Nc1cccc(Cl)c1Cl = 101 % of control
• COc1ccc2c(c1)CC/C(=C\c1ccc(OCCN3CCCC3)cc1)C2=O = 111 % of control
• C[N+](C)(CC(=O)Nc1ccc(Cl)c(C(F)(F)F)c1)Cc1ccc(Cl)cc1 = 100 % of control
• COc1ccc(C)cc1NC(=S)NC(=O)c1ccc(Cl)cc1Cl = 98 % of control
• COc1ccc(OC(=O)Nc2ccccc2[N+](=O)[O-])cc1 = 106 % of control
• NCCc1c[nH]c2ccccc12 = 104 % of control
• CN=C(N)NC = 98 % of control
• CCOC(=O)c1ccc(NC(=S)NC(=O)/C=C/c2ccccc2)cc1 = 91 % of control
• CC(=O)CCC(=O)OC(C)(C)CN = 87 % of control
• O=[N+]([O-])c1ccc(OCCO)c([N+](=O)[O-])c1 = 104 % of control
• CC(C)=CCC/C(C)=C/Cn1cc([N+](=O)[O-])ccc1=O = 111 % of control
• CCOC(=O)CCCN(c1sc(C)c(-c2ccccc2)c1C(=O)OCC)S(=O)(=O)c1ccc(C)cc1 = 104 % of control
• CC(=O)Nc1cc(C(=O)O)cc(C(F)(F)F)c1 = 96 % of control
• NNc1cnc2ccccc2n1 = 101 % of control
• OC1(CCC2OCCO2)c2ccccc2-c2ccccc21 = 96 % of control
• Cc1nc2cccc3ccc4cc5ccccc5c1c4c32 = 89 % of control
• Cn1c2ccccc2c(=O)c2cc([N+](=O)[O-])ccc21 = 93 % of control
• N#CCCNc1ccccc1 = 103 % of control
• CCOC(=O)C1CNc2ccccc2N1 (stereo unspecified) = 105 % of control
